Listed next: entries and their corresponding Log Kow.
# procedure_summary: Log Kow (octanol/water partition coefficient) by HPLC, OECD Test Method 117
# Type: physicochemical
# measurement_conditions: OECD 117

As a guide, the following entries are already answered.
Task item: Returns the measured Log Kow for the input molecule. Input: Fc1c(F)c(F)c(OC(=C(C(F)(F)F)C(F)(F)F)C(F)(F)C(F)(F)F)c(F)c1F
Reply: 6.1

Task item: Returns the measured Log Kow for the input molecule. Input: F/C(=C(/C(F)(F)F)C(F)(Oc1c(F)c(F)c(F)c(F)c1F)C(F)(F)C(F)(F)F)C(F)(C(F)(F)F)C(F)(F)F (stereo not drawn)
Reply: >6.4

Task item: Returns the measured Log Kow for the input molecule. Input: FC(F)(F)C(=C(Oc1cccc(C(F)(F)F)c1)C(F)(F)C(F)(F)F)C(F)(F)F
Reply: 6.1

Task item: Returns the measured Log Kow for the input molecule. Input: F/C(=C(/C(F)(F)F)C(F)(Oc1ccccc1)C(F)(F)C(F)(F)F)C(F)(C(F)(F)F)C(F)(F)F (stereo not drawn)
Reply: >6.4

Task item: Returns the measured Log Kow for the input molecule. Input: FC(F)(F)C(=C(Oc1ccccc1)C(F)(F)C(F)(F)F)C(F)(F)F
Reply: 5.5

Continue with the next molecule.
Task item: Returns the measured Log Kow for the input molecule. Input: F/C(Oc1c(F)c(F)c(F)c(F)c1F)=C(/F)C(F)(F)F
Reply: 4.7
